Molecular target: Guanylate cyclase soluble subunit alpha-1 (Rattus norvegicus) (UniProt P19686)
Sequence (whole entry): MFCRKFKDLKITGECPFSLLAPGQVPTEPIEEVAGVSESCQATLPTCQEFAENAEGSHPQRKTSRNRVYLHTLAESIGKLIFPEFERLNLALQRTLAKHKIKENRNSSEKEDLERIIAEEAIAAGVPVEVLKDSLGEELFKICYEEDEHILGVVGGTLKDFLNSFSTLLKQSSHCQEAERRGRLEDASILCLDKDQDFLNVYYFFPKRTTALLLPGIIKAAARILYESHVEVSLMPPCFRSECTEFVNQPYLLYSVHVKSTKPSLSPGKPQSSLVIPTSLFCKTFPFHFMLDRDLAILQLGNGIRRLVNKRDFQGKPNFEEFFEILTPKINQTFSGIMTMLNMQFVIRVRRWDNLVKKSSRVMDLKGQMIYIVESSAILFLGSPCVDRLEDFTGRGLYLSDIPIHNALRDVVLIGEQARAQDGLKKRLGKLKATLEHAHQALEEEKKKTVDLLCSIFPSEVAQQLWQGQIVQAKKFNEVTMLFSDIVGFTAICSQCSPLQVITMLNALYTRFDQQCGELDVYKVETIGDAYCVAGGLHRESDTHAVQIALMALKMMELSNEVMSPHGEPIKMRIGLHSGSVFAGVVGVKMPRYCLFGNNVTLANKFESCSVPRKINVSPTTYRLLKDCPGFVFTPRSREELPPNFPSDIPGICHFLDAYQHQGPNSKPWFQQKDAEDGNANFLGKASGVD
Assay: Activation of recombinant rat sGC alpha1 subunit expressed in CHO cells assessed as induction of [32P-cGMP] formation using alpha-[32P-GTP] as substrate measured after 6 mins by luminescence assay
Type: cell-based
Details: filed as activator
Please respond with reported MEC for every item in the list.
Field format: number, assumed nM, no unit text.

Q. Requested read-out MEC, target or system Guanylate cyclase soluble subunit alpha-1 (Rattus norvegicus) (UniProt P19686), entry `Cc1ccc(CC2(C(=O)O)CC2)cc1NC(=O)[C@H](c1ccc(Cl)cc1)[C@@H](C)C(F)(F)F`
A. 3

Q. Here is the next compound: `Cc1c(CCC(=O)O)cccc1NC(=O)[C@H](c1ccc(CN2N=C(c3ccccc3)OCC2=O)cc1)C(C)C`
A. 30

Q. Now the same for CC(C)C(CC(=O)O)c1ccc(Cl)c(NC(=O)[C@H](c2ccc(Cl)cc2)[C@@H](C)C(F)(F)F)c1 (stereo in doubt; 44a)
A. 6.5

Q. `C[C@H]([C@H](C(=O)Nc1cccc(CCC(=O)O)c1)c1ccc(CN2N=C(c3ccccc3)OCC2=O)cc1)C(F)(F)F` , same question.
A. 3

Q. Now consider `C[C@H]([C@H](C(=O)Nc1cc(C2(CC(=O)O)CCC2)ccc1Cl)c1ccc(Cl)cc1)C(F)(F)F` and answer again.
A. 1

Q. Also `O=C(O)CCCCCNC(=O)[C@H](c1ccc(CN2N=C(c3ccccc3)OCC2=O)cc1)C1CCCC1` , if possible.
A. 100

Q. Now consider `Cc1c(CCC(=O)O)cccc1NC(=O)[C@H](c1ccc(Cn2nc(C(F)(F)F)ccc2=O)cc1)C1CCCC1` .
A. 3

Q. Can you check Cc1c(CCC(=O)O)cccc1NC(=O)C(c1ccc(Cn2ncccc2=O)cc1)C1CCCC1 (racemic) next?
A. 1000

Q. Next compound: Cc1c(CCC(=O)O)cccc1NC(=O)C(c1ccc(CN2CCOC(c3ccccc3)=N2)cc1)C1CCCC1 (racemic)
A. 1000

Q. Moving on to the next compound: `CC[C@@H](C)[C@H](C(=O)Nc1cccc(CCC(=O)O)c1C)N1CCC(CN2N=C(c3ccccc3)OCC2=O)CC1`
A. 30

Q. Same question for CCN(C)C(C(=O)Nc1cccc(CCC(=O)O)c1C)c1ccc(CN2N=C(c3ccccc3)OCC2=O)cc1 (stereo unspecified) please.
A. 300

Q. Same lookup for `Cc1c(CCC(=O)O)cccc1NC(=O)[C@H](c1ccc(CN2N=C(c3ccccc3)OCC2=O)cc1)[C@@H](C)C(F)(F)F` , please.
A. 3

Q. Here is the next compound: `CC(C)(CCCCNC(=O)[C@H](c1ccc(CN2N=C(c3ccccc3)OCC2=O)cc1)C1CCCC1)C(=O)O`
A. 100

Q. Request: CC(C)C(CC(=O)O)c1ccc(Cl)c(NC(=O)[C@H](c2ccc(Cl)cc2)[C@@H](C)C(F)(F)F)c1 (stereo in doubt; 44b)
A. 3

Q. Try this compound too: `Cc1c(CCC(=O)O)cccc1NC(=O)[C@H](c1ccc(Cl)cc1)[C@@H](C)C(F)(F)F`
A. 1000

Q. Same thing, different compound: O=C(O)c1ccc(CNC(=O)C(c2ccc(CN3N=C(c4ccccc4)OCC3=O)cc2)C2CCCC2)cc1 (racemic)
A. 10
